molecular target: Mast/stem cell growth factor receptor Kit (Homo sapiens, UniProt P10721, DELTA560/V654A)
Sequence (P10721 whole entry, looked up, stated change not applied): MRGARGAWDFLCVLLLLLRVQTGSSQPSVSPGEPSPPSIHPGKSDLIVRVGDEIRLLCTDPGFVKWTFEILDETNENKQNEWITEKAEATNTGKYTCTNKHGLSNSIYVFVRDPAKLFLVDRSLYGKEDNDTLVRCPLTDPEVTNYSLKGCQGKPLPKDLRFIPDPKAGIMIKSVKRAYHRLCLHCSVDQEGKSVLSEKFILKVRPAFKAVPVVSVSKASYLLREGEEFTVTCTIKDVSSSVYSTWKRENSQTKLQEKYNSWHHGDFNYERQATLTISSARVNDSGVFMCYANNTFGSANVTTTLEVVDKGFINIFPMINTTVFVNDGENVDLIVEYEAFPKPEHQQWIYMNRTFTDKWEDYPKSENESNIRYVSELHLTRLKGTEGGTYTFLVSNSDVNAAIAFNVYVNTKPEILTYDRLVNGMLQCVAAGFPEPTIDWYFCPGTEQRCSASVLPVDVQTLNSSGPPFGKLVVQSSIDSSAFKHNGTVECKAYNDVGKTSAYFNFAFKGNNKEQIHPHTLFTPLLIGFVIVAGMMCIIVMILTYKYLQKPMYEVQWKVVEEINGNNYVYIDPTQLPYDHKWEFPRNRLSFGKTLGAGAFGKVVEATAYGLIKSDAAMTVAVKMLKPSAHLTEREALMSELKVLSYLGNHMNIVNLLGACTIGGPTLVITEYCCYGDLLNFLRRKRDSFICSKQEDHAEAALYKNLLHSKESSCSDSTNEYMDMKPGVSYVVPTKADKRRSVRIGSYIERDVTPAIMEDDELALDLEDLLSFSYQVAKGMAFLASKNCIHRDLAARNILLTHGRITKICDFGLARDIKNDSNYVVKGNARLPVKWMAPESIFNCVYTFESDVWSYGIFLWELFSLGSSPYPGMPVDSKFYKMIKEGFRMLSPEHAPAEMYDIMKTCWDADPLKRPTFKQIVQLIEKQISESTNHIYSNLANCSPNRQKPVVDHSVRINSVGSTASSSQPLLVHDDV
VALUE TYPE: IC50 (nM)

A = CN(C)CCCOc1ccn2c(-c3cc(NCc4ccc(-c5cnn(C)c5)cc4)ncn3)cnc2c1
B = c1ccn2c(-c3cncc(NCc4ccc(N5CCCC5)nc4)c3)cnc2c1
C = Cn1cc(-c2ccc(CNc3cc(-c4cnc5cc(OCCO)ccn45)ncn3)cc2)cn1
Enquiry: Please rank these compounds by IC50 in descending order. Your answer should be the labels, listed in the requested order.
Return: B, C, A
(B: 720 nM, C: 75 nM, A: 43 nM)

----------
experiment: Octanol-water distribution coefficient, logD of the compound at pH 7.4; assay type: physicochemical
VALUE TYPE: logD

// worked examples, logD included
[
  {
    "SMILES NOTATION": "Cc1nc(-c2ccc(CNc3cc(-c4cnc5cc(OCCN6CCC(=O)N(C)CC6)ccn45)ncn3)cc2)co1",
    "logD": 3.2
  },
  {
    "SMILES NOTATION": "COCCOc1ccn2c(-c3cc(NCc4ccc(-c5cnn(C)n5)cc4)ncn3)cnc2c1",
    "logD": 3
  },
  {
    "SMILES NOTATION": "Cn1cc(-c2ccc(CNc3cc(-c4cnc5cc(OCCN6CCC(C)(C#N)CC6)ccn45)ncn3)cc2)cn1",
    "logD": 4.4
  },
  {
    "SMILES NOTATION": "Cn1cc(-c2ccc(CNc3cc(-c4cnc5cc(OCCN6CCn7nncc7C6)ccn45)ncn3)cc2)cn1",
    "logD": 2.8
  }
]

P = Cn1cc(-c2ccc(CNc3cc(-c4cnc5cc(OCCCNC6COC6)ccn45)ncn3)cc2)cn1
Q = COCCOc1ccn2c(-c3cc(NCc4ccc(-c5cnn(C)c5)cc4)ncn3)cnc2c1
R = CN(C)CCCOc1ccn2c(-c3cc(NCc4ccc(-c5cnn(C)c5)cc4)ncn3)cnc2c1
Enquiry: Task field, ranking: reported logD, descending order. Form entry: ranked labels (order as requested).
Return: Q, R, P
